Biological target: ScBbc1
Test: SPOT peptide array binding signal intensity (averaged, normalized) (arbitrary units (background-subtracted, floor 0; scale differs between SH3 domains)); higher = stronger binding of the SH3 domain to the peptide
Task for the reader: assign each of the following binders its reported SPOT peptide array binding signal intensity.
# print the numeric value only

For reference, reported SPOT peptide array binding signal intensity for "SRSKPLPLTPNSKYN" stands at 2.5

Lab note: "RAPPPVPKKPSSRIA" gave SPOT peptide array binding signal intensity of 270

Lab book: SPOT peptide array binding signal intensity of "KNPRRQLQIPRQQPS" noted as 7.25

// recorded SPOT peptide array binding signal intensity for "RRARRQMGIPTISQV" : 35.5

So for "RKNRAPPQRPRFNRD" , the logged SPOT peptide array binding signal intensity turned out to be 338

Item: "ERPKRRAPPPVPKKP" | SPOT peptide array binding signal intensity: 460
